Cited source: ChEMBL document CHEMBL5338722

Target: Vasopressin V2 receptor (Homo sapiens, UniProt P30518)
Sequence (P30518 whole entry): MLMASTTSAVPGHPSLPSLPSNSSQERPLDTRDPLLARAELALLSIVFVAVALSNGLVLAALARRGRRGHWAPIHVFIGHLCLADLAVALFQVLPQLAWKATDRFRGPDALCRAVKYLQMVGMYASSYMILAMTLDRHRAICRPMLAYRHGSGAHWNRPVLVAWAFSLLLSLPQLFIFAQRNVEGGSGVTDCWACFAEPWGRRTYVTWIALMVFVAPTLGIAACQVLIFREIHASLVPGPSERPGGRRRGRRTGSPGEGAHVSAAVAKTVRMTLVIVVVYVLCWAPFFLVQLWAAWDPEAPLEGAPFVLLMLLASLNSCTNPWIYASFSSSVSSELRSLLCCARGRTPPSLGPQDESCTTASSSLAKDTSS
Test: Displacement of conivaptan-red fluorescent probe from SNAP-tagged human vasopressin V2 receptor expressed in HEK293 cells compound pre-illuminated for 10 mins with light at 365 nm and further incubated for 1 hr by HTRF assay
Type: cell-based
TEST READOUT: Ki (µM)
Just the number please, in µM, no unit attached.

Input line: Param item = "O=C(c1ccc(/N=N\c2ccc(C(F)(F)F)cc2)cc1Cl)N1Cc2cccn2Cc2ccccc21" ; retrieve measured Ki.
Output line: 5.28

Input line: Similarly, "O=C(c1ccc(/N=N\c2ccccc2)cc1Cl)N1Cc2cccn2Cc2ccccc21" ?
Output line: 0.093

Input line: Similarly, "O=C(c1ccc(/N=N\c2ccccc2-c2ccccc2)cc1Cl)N1Cc2cccn2Cc2ccccc21" ?
Output line: 0.787

Attention now shifts to the item below.
Input line: Param item = "O=C(c1ccc(/N=N\c2ccc(F)cc2)cc1Cl)N1Cc2cccn2Cc2ccccc21" ; retrieve measured Ki.
Output line: 0.289

---

Biological target: Vasopressin V2 receptor (Homo sapiens)
Test: Displacement of conivaptan-red fluorescent probe from SNAP-tagged human vasopressin V2 receptor expressed in HEK293 cells compound pre-illuminated for 10 mins with light at 365 nm and further incubated for 1 hr by HTRF assay
Type: cell-based
Measured pKi, listed per entry for reference.
Units for pKi: none; it is -log10 of a concentration expressed in mol/L.

Below: 2 compounds and their reported pKi.
Input line: Param item = "Cc1ccccc1/N=N\c1ccc(C(=O)N2Cc3cccn3Cc3ccccc32)c(Cl)c1" ; retrieve measured pKi.
Output line: 5.91

Input line: Similarly, "O=C(c1ccc(/N=N\c2cccc(-c3ccccc3)c2)cc1Cl)N1Cc2cccn2Cc2ccccc21" ?
Output line: 6.18

---
Input line: Param item = "Cc1cccc(/N=N\c2ccc(C(=O)N3Cc4cccn4Cc4ccccc43)c(Cl)c2)c1" ; retrieve measured pKi.
Output line: 6.87

Input line: Similarly, "Cc1ccc(F)cc1/N=N\c1ccc(C(=O)N2Cc3cccn3Cc3ccccc32)c(Cl)c1" ?
Output line: 5.77

Input line: Similarly, "Cc1ccc(/N=N\c2ccc(C(=O)N3Cc4cccn4Cc4ccccc43)c(Cl)c2)cc1" ?
Output line: 7.40

---

Target: Vasopressin V2 receptor (Homo sapiens)
Assay: Displacement of conivaptan-red fluorescent probe from SNAP-tagged human vasopressin V2 receptor expressed in HEK293 cells compound pre-illuminated for 10 mins with light at 435 nm and further incubated for 1 hr by HTRF assay
Format: cell-based
TEST READOUT: pKi
Units for pKi: none; it is -log10 of a concentration expressed in mol/L.

Below: 4 molecules and their reported pKi.
Input line: Param item = "Cc1ccccc1/N=N/c1ccc(C(=O)N2Cc3cccn3Cc3ccccc32)c(Cl)c1" ; retrieve measured pKi.
Output line: 6.36

Input line: Similarly, "Cc1ccc(/N=N/c2ccc(C(=O)N3Cc4cccn4Cc4ccccc43)c(Cl)c2)cc1" ?
Output line: 6.55

Input line: Similarly, "O=C(c1ccc(/N=N/c2cccc(-c3ccccc3)c2)cc1Cl)N1Cc2cccn2Cc2ccccc21" ?
Output line: 5.66

Input line: Similarly, "Cc1ccc(F)cc1/N=N/c1ccc(C(=O)N2Cc3cccn3Cc3ccccc32)c(Cl)c1" ?
Output line: 6.24

---
Input line: Param item = "O=C(c1ccc(/N=N/c2ccc(F)cc2)cc1Cl)N1Cc2cccn2Cc2ccccc21" ; retrieve measured pKi.
Output line: 6.07
